SYSTEM TESTED: human mAChR M4 (Homo sapiens, UniProt P08173)
Construct: expressed in transfected cells
ASSAY NAME: mAChR M4 cell-based functional assay (calcium mobilization, CHO-K1 hM4-Gqi5 cells)
MEASUREMENT CONDITIONS: CHO-K1, % ACh maximum at 30 μM; human M4
QUANTITY MEASURED: Emax at 30 µM (%)

MOLECULE: Cc1cc(C#N)cnc1N1CCc2ncc(N3CCCn4nc(C(C)(C)C)cc43)cc2C1
MEASUREMENT UNIT: %
Emax at 30 µM: 65

MOLECULE: [2H]C1([2H])Cc2ncc(Nc3cccnc3C)cc2C([2H])([2H])N1c1nnc(C#N)cc1C
MEASUREMENT UNIT: %
Emax at 30 µM: 83

MOLECULE: Cc1nc(Cl)nc(N2CCc3ncc(C(F)(F)F)cc3C2)c1C
MEASUREMENT UNIT: %
Emax at 30 µM: 94

MOLECULE: Cc1cc(C(=O)NC2CN(CC(F)(F)F)C2)nnc1N1CCc2ncc(N3CCCn4nccc43)cc2C1
MEASUREMENT UNIT: %
Emax at 30 µM: 104

MOLECULE: Cc1cc(C#N)nnc1N1Cc2cc(N3CCOCC3)cnc2C(C)C1 (single isomer, unassigned) [Example 407]
MEASUREMENT UNIT: %
Emax at 30 µM: 91

MOLECULE: Cc1cc(C(=O)N2CCC2C)nnc1N1CCc2ncc(N3CCCn4nccc43)cc2C1 (stereo not shown)
MEASUREMENT UNIT: %
Emax at 30 µM: 111

MOLECULE: Cc1cc(C#N)cnc1N1CCc2ncc(C(C)(O)C(F)(F)F)cc2C1 (stereo not shown)
MEASUREMENT UNIT: %
Emax at 30 µM: 95

MOLECULE: Cc1c(Cl)nc(C2CC2)nc1N1CCc2ncc(Nc3cccc(F)c3F)cc2C1
MEASUREMENT UNIT: %
Emax at 30 µM: 67

MOLECULE: Cc1cc(C#N)cnc1N1CCc2ncc(-n3cccn3)cc2C1
MEASUREMENT UNIT: %
Emax at 30 µM: 88

MOLECULE: Cc1cc(C#N)cnc1N1CCc2ncc(Cc3ccccc3F)cc2C1
MEASUREMENT UNIT: %
Emax at 30 µM: 89

---

SYSTEM TESTED: human mAChR M4 (Homo sapiens, UniProt P08173)
Construct: expressed in transfected cells
Sequence (P08173 1-479): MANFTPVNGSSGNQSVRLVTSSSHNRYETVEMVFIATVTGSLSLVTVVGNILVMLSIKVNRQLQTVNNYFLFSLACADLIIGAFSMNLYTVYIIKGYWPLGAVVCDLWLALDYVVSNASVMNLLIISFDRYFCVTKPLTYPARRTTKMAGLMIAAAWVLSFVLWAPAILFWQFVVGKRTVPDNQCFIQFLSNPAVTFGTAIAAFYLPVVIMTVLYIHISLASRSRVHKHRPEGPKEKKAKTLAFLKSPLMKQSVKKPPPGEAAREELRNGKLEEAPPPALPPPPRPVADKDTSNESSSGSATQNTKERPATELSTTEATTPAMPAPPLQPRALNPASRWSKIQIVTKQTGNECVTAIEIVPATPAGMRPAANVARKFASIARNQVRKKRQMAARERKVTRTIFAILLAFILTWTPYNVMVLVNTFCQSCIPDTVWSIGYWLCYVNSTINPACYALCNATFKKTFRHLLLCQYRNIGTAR
ASSAY NAME: mAChR M4 cell-based functional assay (calcium mobilization, CHO-K1 hM4-Gqi5 cells)
MEASUREMENT CONDITIONS: CHO-K1, % ACh maximum at 30 μM; human M4
QUANTITY MEASURED: Emax at 30 µM (%)

Example molecules with recorded Emax at 30 µM:
MOLECULE: Cc1cc(C#N)cnc1N1CCc2ncc(N3CCC(C(F)(F)F)n4nccc43)cc2C1 (stereo not shown) [Example 359]
Emax at 30 µM, %: 120
--
MOLECULE: Cc1cc(C#N)cnc1N1CCc2ncc(C3CCOC3)cc2C1 (stereo not shown) [Example 395]
Emax at 30 µM, %: 90
--
MOLECULE: Cc1cc(C(=O)NCc2cn3ccccc3n2)cnc1N1CCc2ncccc2C1 [compound 120]
Emax at 30 µM, %: 64
--
MOLECULE: Cc1nc(NCC(C)(C)O)nc(N2CCc3ncc(Nc4ccnn4C)cc3C2)c1C [compound 280]
Emax at 30 µM, %: 105
--
MOLECULE: Cc1cc(C(=O)N2CCC2c2ccccc2)nnc1N1CCc2ncc(N3CCCn4nccc43)cc2C1 (stereo not shown) [Example 557]
Emax at 30 µM, %: 91
--
MOLECULE: Cc1cc(C(=O)N2CC3(C2)CC(F)(F)C3)nnc1N1CCc2ncc(N3CCO[C@H](C)C3)cc2C1 [Example 574]
Emax at 30 µM, %: 81

1: Cc1cc(C#N)cnc1N1CCc2ncc(OCCOc3ccccc3)cc2C1 [Example 427]
2: Cc1c(C(=O)Nc2ccncc2)nnc(N2CCc3ncc(C(F)(F)F)cc3C2)c1C [Example 466]
Hi, I'm comparing two records. Which one has the lower Emax at 30 µM, 1 or 2 ? Answer = label.
1
(1: 63%, 2: 98%)

A: Cc1cc(C#N)nnc1N1CCc2ncc(N3CCOC(C)(C)C3)cc2C1 [Example 398]
B: Cc1cc(C#N)nnc1N1CCc2ncc(N3CCCn4nccc43)cc2C1 [Example 360]
Which value of Emax at 30 µM is greater, the one for A or the one for B ? Answer by quoting the chosen item's label.
B
(B: 129%, A: 74%)

Cited source: patent US20250230155A1
